Every entry's value here was drawn from patent US20130034497A1.

Tested on: H460 tumor bearing mice
Experiment: Biodistribution in H460 tumor bearing mice
Type: in vivo, NMRI (nu/nu) mice
Conditions: 0.5 h
Description: Biodistribution in H460 tumor bearing mice. To test the pharmacokinetic properties of (2S,4S)-2-Amino-4-(4-[I-125]-iodo-benzyl)-pentanedioic acid, the iodinated compound was examined in H460 tumor bearing mice. NMRI (nu/nu) mice were inoculated with H460 tumor cells 8 to 10 days before the biodistribution studies. 185 kBq of activity of the tracer was injected into each mouse. n=3 mice were used at every time point. […] All organs were removed and radioactivity was determined using a γ-counter. […]
Endpoint: Bilanz/summary carcass (%)
Field format: number, assumed %, no unit text.

Record request: Bilanz/summary carcass value, item `N[C@@H](C[C@H](Cc1ccc([125I])cc1)C(=O)O)C(=O)O`
3.4

----------
Test system: H460 tumor bearing mice
Experiment: Biodistribution in H460 tumor bearing mice
Type: in vivo, NMRI (nu/nu) mice
Details: 1 h
Endpoint: Bilanz/summary carcass
Give the value; after it, write the unit.

Report Bilanz/summary carcass for `N[C@@H](C[C@H](Cc1ccc([125I])cc1)C(=O)O)C(=O)O` please.
2.2%

----------
Tested on: H460 tumor bearing mice
Assay: Biodistribution in H460 tumor bearing mice
Format: in vivo, NMRI (nu/nu) mice
Settings: 4 h
Endpoint: Bilanz/summary organs
The reply should read as a number followed by its unit.

Given the molecule `N[C@@H](C[C@H](Cc1ccc([125I])cc1)C(=O)O)C(=O)O` , what is its reported Bilanz/summary organs?
2.8%

----------
Test system: H460 tumor bearing mice
Assay: Biodistribution in H460 tumor bearing mice
Assay type: in vivo, NMRI (nu/nu) mice
Conditions: 0.5 h
Endpoint: Bilanz/summary organs (%)
Field: numeric (%). Do not append units.

State the recorded Bilanz/summary organs for this entry: `N[C@@H](C[C@H](Cc1ccc([125I])cc1)C(=O)O)C(=O)O`
10.2

----------
Tested on: H460 tumor bearing mice
Experiment: Biodistribution in H460 tumor bearing mice
Type: in vivo, NMRI (nu/nu) mice
Conditions: 1 h
Endpoint: Bilanz/summary faeces (%)
Write it as a number; the unit % goes unstated.

Quick one: Bilanz/summary faeces of `N[C@@H](C[C@H](Cc1ccc([125I])cc1)C(=O)O)C(=O)O` ?
0.7

----------
Tested on: H460 tumor bearing mice
Assay: Biodistribution in H460 tumor bearing mice
Assay type: in vivo, NMRI (nu/nu) mice
Conditions: 2 h
Endpoint: Bilanz/summary organs (%)
Only the number, expressed in %, is required.

Form field: reported Bilanz/summary organs of `N[C@@H](C[C@H](Cc1ccc([125I])cc1)C(=O)O)C(=O)O`
3.8
